Listing: AC50 of selected compounds
System: HTT mRNA
Run description: Splicing RT-qPCR assay, HTT canonical (CJ) and alternative (AJ) junction mRNA
Format: cell-based, human
Assay context: Homo sapiens, A673 or K562 cells, 24 hours compound treatment, read-out: HTT AJ (AC50, increase in alternative junction mRNA)
Where a name gives a salt, the structure may show the parent alone.

# example entries with known answers
CC1=NC2C=C(NC(=O)c3ccc(N4CCNC(C)(C)C4)c4cn(C)nc34)C=C(F)C2=N1 (stereo not drawn) : 0.1 to 1 µM
Cc1cn2cc(NC(=O)c3ccc(N4CCNC[C@H]4C)c4cn(C)nc34)cc(F)c2n1 : 0.1 to 1 µM
CCn1cc2c(N3CCC(NC4C5CNCC54)CC3)ccc(C(=O)Nc3cc(F)c4nc(C)cn4c3)c2n1 (stereo not drawn) : > 10 µM
CCn1cc2c(N3CCC(N(C)C)C3)ccc(C(=O)Nc3cc(F)c4nc(C)cn4c3)c2n1 (stereo not drawn) : 0.1 to 1 µM
CCn1cc2c(N3CCC(NCC4(O)CC4)CC3)ccc(C(=O)Nc3cc(F)c4nc(C)cn4c3)c2n1 : > 10 µM

Q. Looking for the measured AC50 of Cc1cn2cc(NC(=O)c3ccc(N4CCNCC4)c4cn(CC(=O)N(C)C)nc34)cc(F)c2n1 , can you help?
A. > 10 µM

Q. Then what about the compound Cc1cn2cc(NC(=O)c3ccc(N4CC[C@@H](N5CCNCC5)C4)c4cn(C)nc34)cc(F)c2n1 [Compound 562, hydrochloride] ?
A. > 10 µM

Q. Then what about the compound CCn1cc2c(N3CCNCC3)cc(F)c(C(=O)Nc3cc(F)c4nc(C)cn4c3)c2n1 ?
A. 0.1 to 1 µM

Q. Then what about the compound CCn1cc2c(N3CCC(C)(N)C3)ccc(C(=O)Nc3cc(F)c4nc(C)cn4c3)c2n1 (stereo not drawn) ?
A. > 10 µM

Q. Then what about the compound Cc1cn2cc(NC(=O)c3ccc(N4CCNCC4)c4nnn(C)c34)cc(F)c2n1 ?
A. > 10 µM

Q. Then what about the compound Cc1cn2cc(NC(=O)c3ccc(N4CCNCC4)c4cn(C)nc34)[nH]c(=O)c2n1 ?
A. > 10 µM

Q. Then what about the compound COc1c(NC(=O)c2ccc(N3CCNCC3)c3cn(C)nc23)cc(C)c2nn(C)cc12 ?
A. > 10 µM

Q. Then what about the compound Cc1cn2cc(NC(=O)c3ccc(N4CCNC[C@@H]4C)c4cn(C)nc34)cc(F)c2n1 ?
A. 1 to 10 µM

Q. Then what about the compound Cc1cn2cc(NC(=O)c3ccc(N4CCNC(C)C4)c4cc(C)oc34)cc(F)c2n1 (stereo not drawn) ?
A. 0.1 to 1 µM

Q. Then what about the compound Cc1cn2cc(NC(=O)c3c(F)cc(N4CC[C@@H](NC5CC5)C4)c4cn(C)nc34)cc(F)c2n1 ?
A. 0.1 to 1 µM

Q. Then what about the compound CCNC1CCN(c2ccc(C(=O)Nc3cc(F)c4nc(C)cn4c3)c3nn(CC)cc23)C1 (stereo in doubt) [Compound 400] ?
A. > 10 µM

Q. Then what about the compound COCc1nc2c(F)cc(NC(=O)c3ccc(N4CCNCC4)c4cn(C)nc34)cc2o1 ?
A. 1 to 10 µM

Q. Then what about the compound C=C(C)n1ncc2c(N3CCNCC3)ccc(C(=O)Nc3cc(F)c4nc(C)cn4c3)c21 ?
A. > 10 µM

Q. Then what about the compound Cc1cn2cc(NC(=O)c3ccc(N4CCC(N)(C(F)(F)F)CC4)c4cn(C)nc34)cc(F)c2n1 ?
A. > 10 µM

Q. Then what about the compound CC(=O)Cn1cc2c(N3CCNCC3)ccc(C(=O)Nc3cc(F)c4nc(C)cn4c3)c2n1 ?
A. > 10 µM

Q. Then what about the compound Cc1cn2cc(NC(=O)c3ccc(N4CCNCC4)c4cn(C)nc34)nc2c(C)n1 ?
A. > 10 µM

Q. Then what about the compound Cn1cc2c(N3CCNCC3)ccc(C(=O)Nc3cc(F)c4nc(CO)oc4c3)c2n1 ?
A. 0.1 to 1 µM

Q. Then what about the compound Cc1cn2cc(NC(=O)c3ccc(N4CCNCC4)c4cn(CCCl)nc34)cc(F)c2n1 ?
A. 1 to 10 µM

Q. Then what about the compound CCn1cc2c(N3CCN[C@@H](C(C)C)C3)ccc(C(=O)Nc3cc(F)c4nc(C)cn4c3)c2n1 ?
A. > 10 µM
